// UniProt:P31749 pIC50 records
Sequence (P31749 whole entry): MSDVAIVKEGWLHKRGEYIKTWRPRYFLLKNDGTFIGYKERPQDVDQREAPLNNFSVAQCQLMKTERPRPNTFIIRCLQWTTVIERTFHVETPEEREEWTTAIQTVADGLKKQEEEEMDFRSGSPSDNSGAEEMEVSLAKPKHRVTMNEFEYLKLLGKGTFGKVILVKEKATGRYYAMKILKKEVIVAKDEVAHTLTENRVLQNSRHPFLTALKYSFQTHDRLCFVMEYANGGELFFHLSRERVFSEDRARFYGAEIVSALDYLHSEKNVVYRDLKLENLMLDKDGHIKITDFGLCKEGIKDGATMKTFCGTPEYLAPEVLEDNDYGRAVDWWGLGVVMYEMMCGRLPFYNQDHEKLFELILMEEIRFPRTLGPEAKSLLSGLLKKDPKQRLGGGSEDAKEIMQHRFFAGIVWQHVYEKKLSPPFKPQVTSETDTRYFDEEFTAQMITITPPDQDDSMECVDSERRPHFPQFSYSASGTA
pIC50: −log10 of the molar value.

- molecule: "CC(C)(C)OC(=O)NC[C@H](Cc1ccccc1)NC(=O)c1cn(CC(F)(F)F)c2c1CCc1cnccc1-2 [E12]"
  assayed-target: "UniProt:P31749"
  pIC50: "> 6.30"

We now examine a further molecule.
Requested read-out: pIC50. Entry: NC[C@H](Cc1ccccc1)NC(=O)c1cn(CC(F)(F)F)c2c1CCc1cnccc1-2 [E14] > 6.30

###

- assayed-target: Cdc7/Dbf4 (Homo sapiens, UniProt O00311)
- Sequence (O00311 whole entry): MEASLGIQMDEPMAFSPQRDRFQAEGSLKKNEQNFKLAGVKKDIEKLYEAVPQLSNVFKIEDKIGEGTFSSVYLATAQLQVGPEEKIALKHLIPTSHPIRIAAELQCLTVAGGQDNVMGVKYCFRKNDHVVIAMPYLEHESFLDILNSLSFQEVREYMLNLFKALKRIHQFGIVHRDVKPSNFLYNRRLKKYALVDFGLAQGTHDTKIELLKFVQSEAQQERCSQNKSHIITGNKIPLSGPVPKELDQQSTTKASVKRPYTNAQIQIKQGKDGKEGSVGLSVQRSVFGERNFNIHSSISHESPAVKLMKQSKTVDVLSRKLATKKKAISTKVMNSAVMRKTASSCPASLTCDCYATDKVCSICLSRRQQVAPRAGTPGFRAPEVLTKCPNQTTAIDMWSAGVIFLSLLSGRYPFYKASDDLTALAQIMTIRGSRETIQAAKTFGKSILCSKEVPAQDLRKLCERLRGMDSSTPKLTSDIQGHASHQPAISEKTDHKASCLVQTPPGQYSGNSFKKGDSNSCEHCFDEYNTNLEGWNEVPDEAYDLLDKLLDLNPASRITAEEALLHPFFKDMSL
- Sequence (Q9UBU7 whole entry partner): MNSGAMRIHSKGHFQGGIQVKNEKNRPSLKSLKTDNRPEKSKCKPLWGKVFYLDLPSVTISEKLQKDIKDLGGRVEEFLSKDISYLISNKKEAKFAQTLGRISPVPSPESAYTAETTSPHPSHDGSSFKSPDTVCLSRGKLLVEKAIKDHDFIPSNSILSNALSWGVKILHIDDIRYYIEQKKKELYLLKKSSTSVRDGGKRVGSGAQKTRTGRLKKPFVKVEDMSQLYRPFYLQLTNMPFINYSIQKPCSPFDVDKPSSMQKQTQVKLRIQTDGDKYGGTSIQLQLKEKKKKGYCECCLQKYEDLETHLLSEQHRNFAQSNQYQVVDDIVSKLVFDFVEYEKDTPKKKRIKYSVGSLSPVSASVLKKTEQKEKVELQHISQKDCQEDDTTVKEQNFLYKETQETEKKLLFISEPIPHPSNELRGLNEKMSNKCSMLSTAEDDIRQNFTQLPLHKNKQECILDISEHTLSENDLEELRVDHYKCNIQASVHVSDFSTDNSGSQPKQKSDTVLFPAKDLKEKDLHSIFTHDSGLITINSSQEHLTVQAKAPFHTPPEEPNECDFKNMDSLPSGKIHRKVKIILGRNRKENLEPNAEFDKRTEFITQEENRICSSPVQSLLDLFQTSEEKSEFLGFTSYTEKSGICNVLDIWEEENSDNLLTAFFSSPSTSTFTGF
- test-name: Inhibition assay of Cdc7/Dbf4 activity (Dowex resin capture, 33P-ATP, MCM2 substrate)
- measurement-parameters: MCM2 6 μM, ATP 2 μM, enzyme 2 nM, 60 min rt
Counter-ions that a name gives are not always drawn.
assay-endpoint: IC50

// known answers, use as guide
- molecule: "CCOC(=O)c1c(Br)[nH]c2c1CCc1cnccc1-2 [F1, hydrobromide]"
  assay-endpoint: "IC50"
  value-measured: "< 1000 nM"
- molecule: "O=C(O)c1cn(CC(F)(F)F)c2c1CCc1cnccc1-2 [E7]"
  assay-endpoint: "IC50"
  value-measured: "< 1000 nM"
- molecule: "Cc1ccccc1-c1c(C(N)=O)c2c(n1C)-c1ccncc1CC2 [F5]"
  assay-endpoint: "IC50"
  value-measured: "< 100 nM"
- molecule: "NC(=O)c1c[nH]c2c1CCc1cnccc1-2 [E10]"
  assay-endpoint: "IC50"
  value-measured: "< 1000 nM"

Requested read-out: IC50. Entry: O=C(O)c1cc2c([nH]1)-c1ccncc1CC2 [L2] < 1000 nM

###

- assayed-target: Cdc7/Dbf4 (Homo sapiens, UniProt O00311)
- test-name: Inhibition assay of Cdc7/Dbf4 activity (Dowex resin capture, 33P-ATP, MCM2 substrate)
- measurement-parameters: MCM2 6 μM, ATP 2 μM, enzyme 2 nM, 60 min rt
- Procedure: Inhibition Assay of Cdc7 Activity The inhibiting activity of putative Cdc7 inhibitors and the potency of selected compounds is determined through a method of assay based on the use of Dowex resin capture technology. The assay consists of the transfer of radioactivity labeled phosphate moiety by the kinase to an acceptor substrate. The resulting 33P-labeled product is separated from unreacted tracer, transferred into a scintillation cocktail and light emitted is measured in a scintillation counter. […]
assay-endpoint: IC50

- compound: "NC(=O)c1c(-c2ccncc2)[nH]c2c1ccc1cnccc12 [H3]"
  IC50: "< 0.1 µM"
- compound: "NC(=O)c1c(-c2ccccc2)[nH]c2c1ccc1cnccc12 [G3]"
  IC50: "< 0.1 µM"
- compound: "O=Cc1c(-c2ccncc2)[nH]c2c1ccc1cnccc12 [H1]"
  IC50: "< 0.1 µM"
- compound: "Cn1c(-c2ccccc2)c(C(N)=O)c2ccc3n[nH]cc3c21 [C2]"
  IC50: "< 0.1 µM"
- compound: "O=C(O)c1c[nH]c2c1CCc1cnccc1-2 [E6]"
  IC50: "< 1 µM"

Checklist item: IC50 tested on Cdc7/Dbf4 (Homo sapiens, UniProt O00311), entry Cn1c(-c2ccccc2)c(C(N)=O)c2ccc3cnc(N)nc3c21 [N10] , value? < 0.1 µM

Also need NC(=O)c1c(-c2ccccc2)[nH]c2c1ccc1cnc(N)nc12 [N9] , thanks. < 0.1 µM

Also need O=C(O)c1c(-c2ccc(Br)cc2)[nH]c2c1ccc1cnccc12 [G5] , thanks. < 0.1 µM

###

- assayed-target: Cdc7/Dbf4 (Homo sapiens)
- test-name: Inhibition assay of Cdc7/Dbf4 activity (Dowex resin capture, 33P-ATP, MCM2 substrate)
- measurement-parameters: MCM2 6 μM, ATP 2 μM, enzyme 2 nM, 60 min rt
pIC50: −log10 of the molar value.
Attribute: pIC50

// known answers, use as guide
- entry-smiles: "NC(=O)c1c(-c2ccc(Br)cc2)[nH]c2c1ccc1cnccc12"
  pIC50: "> 7.00"
- entry-smiles: "Cn1cc(C(=O)O)c2ccc3[nH]ncc3c21"
  pIC50: "> 7.00"

We now examine a further compound.
Requested read-out: pIC50. Entry: "Cn1cc(C(N)=O)c2ccc3n[nH]cc3c21" > 7.00

###

- assayed-target: Cdc7/Dbf4 (Homo sapiens)
- test-name: Inhibition assay of Cdc7/Dbf4 activity (Dowex resin capture, 33P-ATP, MCM2 substrate)
- measurement-parameters: MCM2 6 μM, ATP 2 μM, enzyme 2 nM, 60 min rt
pIC50: −log10 of the molar value.
Attribute: pIC50

- molecule: "Cn1c2c(c(C(N)=O)c1-c1ccccc1)CCc1cnc(N)nc1-2 [N4]"
  pIC50: "> 6.00"
- molecule: "O=Cc1c(-c2ccc(N3CCOCC3)cc2)[nH]c2c1ccc1cnccc12 [G7]"
  pIC50: "> 6.00"

Requested read-out: pIC50. Entry: Cn1c(Cl)c(C(N)=O)c2ccc3[nH]ncc3c21 [C1] > 7.00
